Record form. Attribute: Maximum inhibition rate %; hIL36γ; IL-8 production. Fill in for each entry.
- target system: T1, IL-36R naturally expressed on OVCAR8 cells and on normal human epidermal keratinocytes (NHK cells) (human, UniProt Q9HB29 20-575)
- T1 sequence (looked up): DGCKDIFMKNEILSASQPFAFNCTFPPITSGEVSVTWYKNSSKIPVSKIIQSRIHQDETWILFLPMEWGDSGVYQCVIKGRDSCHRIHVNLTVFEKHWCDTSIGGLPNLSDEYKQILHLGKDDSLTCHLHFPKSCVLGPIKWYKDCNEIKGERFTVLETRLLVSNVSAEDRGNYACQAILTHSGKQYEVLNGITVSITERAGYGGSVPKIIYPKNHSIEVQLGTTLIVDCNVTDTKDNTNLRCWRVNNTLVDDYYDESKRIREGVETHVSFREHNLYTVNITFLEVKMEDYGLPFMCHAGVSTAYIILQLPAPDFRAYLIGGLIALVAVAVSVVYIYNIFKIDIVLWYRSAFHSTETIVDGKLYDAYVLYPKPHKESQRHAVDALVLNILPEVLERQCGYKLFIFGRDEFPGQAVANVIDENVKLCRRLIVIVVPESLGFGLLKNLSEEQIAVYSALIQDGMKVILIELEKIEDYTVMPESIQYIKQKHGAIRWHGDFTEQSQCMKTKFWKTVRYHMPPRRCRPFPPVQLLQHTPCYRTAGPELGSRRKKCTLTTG
- assay comment: cell-based or functional assay
One number for each entry, in %.

Consider the following items and state reported Maximum inhibition rate %; hIL36γ; IL-8 production for each.
1. hz84C4-2.2 (antibody, human IgG4 S228P, kappa, V domains shown, Humanized, human IgG4 / kappa) VH: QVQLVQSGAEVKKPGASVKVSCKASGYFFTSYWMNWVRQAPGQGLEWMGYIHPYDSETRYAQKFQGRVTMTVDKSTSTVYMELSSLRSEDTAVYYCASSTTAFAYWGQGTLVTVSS VL: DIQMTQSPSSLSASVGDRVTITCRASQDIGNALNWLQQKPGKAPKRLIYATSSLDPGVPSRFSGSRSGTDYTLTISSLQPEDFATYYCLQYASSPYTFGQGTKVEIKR
2. hz84C4-2.3 (antibody, human IgG4 S228P, kappa, V domains shown, Humanized, human IgG4 / kappa) VH: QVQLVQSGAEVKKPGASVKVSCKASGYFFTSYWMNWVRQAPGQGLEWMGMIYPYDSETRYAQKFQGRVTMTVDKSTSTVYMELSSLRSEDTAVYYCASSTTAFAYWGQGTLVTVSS VL: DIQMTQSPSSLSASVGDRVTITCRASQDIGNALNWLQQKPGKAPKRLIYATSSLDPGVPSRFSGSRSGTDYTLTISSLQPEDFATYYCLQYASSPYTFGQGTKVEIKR
3. hz84C4-1.4 (antibody, human IgG4 S228P, kappa, V domains shown, Humanized, human IgG4 / kappa) VH: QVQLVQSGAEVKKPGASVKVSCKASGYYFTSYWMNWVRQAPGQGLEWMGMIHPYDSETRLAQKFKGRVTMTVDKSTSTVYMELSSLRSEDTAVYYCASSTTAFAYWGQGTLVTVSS VL: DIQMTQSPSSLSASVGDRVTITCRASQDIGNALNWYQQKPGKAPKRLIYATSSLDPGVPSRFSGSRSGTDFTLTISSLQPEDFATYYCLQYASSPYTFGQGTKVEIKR

A)
1: 98.7; 2: 41.5; 3: 99.4

Origin of values: patent US20240270857A1
